# test: qHTS assay for small molecule agonists of the antioxidant response element (ARE) signaling pathway measured by Nrf2-dependant transcriptional activity - cell viability counter screen (AID 720653); note: % is set by controls: 0 for no effect and ±100 for the full control effect
# testParameters: ARE-bla HepG2 viability, CellTiter-Glo ATP luminescence, 16 h; active compounds read low
Results filed as inconclusive are left out.
Listed here are compounds together with their documented max response.
Give the value in % but do not write % after it.

[
  {
    "compound": "CCC(C)(NC(=O)c1cc(Cl)c(C)c(Cl)c1)C(=O)CCl (stereo not given)",
    "unitDescriptor": "%",
    "max response": 0.353
  },
  {
    "compound": "COc1nn(C(=O)NS(=O)(=O)c2ccccc2OC(F)(F)F)c(=O)n1C",
    "unitDescriptor": "%",
    "max response": 3.81
  },
  {
    "compound": "O=C1NCCN1Cc1ccc(Cl)nc1",
    "unitDescriptor": "%",
    "max response": 1.67
  },
  {
    "compound": "ClC1=C(Cl)[C@@]2(Cl)[C@H]3C[C@@H](Cl)[C@H](Cl)[C@H]3[C@@]1(Cl)C2(Cl)Cl",
    "unitDescriptor": "%",
    "max response": -24.7
  }
]

Ask: Find the recorded max response belonging to "CCNS(=O)(=O)C(F)(F)C(F)(F)C(F)(F)C(F)(F)C(F)(F)C(F)(F)C(F)(F)C(F)(F)F" and report it.
Reply: -7.97

---

# systemUnderTest: Retinoic acid receptor RXR-alpha (Homo sapiens)
# test: qHTS assay for small molecule agonists of retinoid X receptor alpha signaling (AID 588544);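 note: 0% = DMSO basal wells and 100% = reference agonist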
# testParameters: HEK293T RXRa-UAS-bla, beta-lactamase reporter, 18 h; series mostly up to 76.7 µM
Inconclusive results are not listed. Activity calls are given as the source filed them. Calls follow the shape of the full dose curve.
# output must be one of 1 (active), 0 (inactive)

Ask: Recorded call for COc1ccc(C(O)(c2cncnc2)C2CC2)cc1 (stereo not drawn) ?
Reply: 0

Ask: Assay outcome for "Nc1nc(N)nc(N)n1" : what was it?
Reply: 0

Ask: Per the records of this test, what outcome belongs to "CC(C)(c1ccccc1)c1cc(-n2nc3ccccc3n2)c(O)c(C(C)(C)c2ccccc2)c1" ?
Reply: 0

Ask: Assay result, entry CC(Oc1ccc(Cl)cc1Cl)C(=O)O (stereo not drawn) — outcome?
Reply: 0

Ask: State the result this test recorded for "Nc1ccc([N+](=O)[O-])cc1Cl" .
Reply: 0

Ask: Record request — test call for "c1cc[n+]2c(c1)-c1cccc[n+]1CC2"
Reply: 0

---

# test: Cell Viability - LYMP2-013 (AID 970);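 note: cells exposed to compound for 24 h at 37 °C; nearly all actives have a fitted effect of over 55% in size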
# testParameters: LYMP2-013 lymphoblastoid cells viability; series mostly up to 92.2 µM
Inconclusive results are not listed. Activity calls are given as the source filed them. Calls follow the shape of the dose curve; as a rule, active = well fitted cell-killing curve with a large enough effect; inconclusive = small, poorly fitted or top-dose-only effect; inactive = flat fitted curve, though single readings scatter.
Result category, one only: active, inactive

[
  {
    "compound": "O=C(CCl)c1ccccc1",
    "labelValue": "active"
  },
  {
    "compound": "c1cc(OCC2CO2)cc(OCC2CO2)c1 (configuration not stated)",
    "labelValue": "active"
  },
  {
    "compound": "CCCCCCCCn1sccc1=O",
    "labelValue": "active"
  },
  {
    "compound": "O=C(O)C1C(C(=O)O)C2(Cl)C(Cl)=C(Cl)C1(Cl)C2(Cl)Cl (configuration not stated)",
    "labelValue": "inactive"
  }
]

Ask: Please state the recorded outcome for this compound: "OC(c1ccc(Cl)cc1)(c1ccc(Cl)cc1)C(Cl)(Cl)Cl"
Reply: inactive

Ask: # lookup: test call for "C=CC(=O)OCC(CO)(COC(=O)C=C)COC(=O)C=C"
Reply: active

Ask: How was "N#CSCSC#N" classified in this test?
Reply: active

---

# test: qHTS assay for small molecule agonists of the antioxidant response element (ARE) signaling pathway measured by Nrf2-dependant transcriptional activity (AID 720636);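 note: HepG2 cells with an ARE-driven luciferase reporter; % of control where 0% means no effect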
# testParameters: ARE-luc HepG2, Nrf2 luciferase reporter, 16 h; series mostly up to 92.4 µM
Records with an inconclusive call do not appear. The source made the active and inactive calls. Calls come from the whole dose curve; as a rule, active = well fitted activation curve with a large enough effect in the repeat runs; inconclusive = weak or mixed curves; inactive = flat fitted curve, though single readings scatter.
Could you please pick one outcome from this set? active, inactive

Previously resolved entries follow.
[
  {
    "compound": "Clc1ccc(-c2cc(Cl)c(Cl)cc2Cl)cc1Cl",
    "labelValue": "inactive"
  },
  {
    "compound": "CN(c1c(Br)cc(Br)cc1Br)c1c([N+](=O)[O-])cc([N+](=O)[O-])cc1C(F)(F)F",
    "labelValue": "inactive"
  },
  {
    "compound": "CCOP(=S)(S)OCC",
    "labelValue": "inactive"
  },
  {
    "compound": "CC/C(=C(\\c1ccccc1)c1ccc(OCCN(C)C)cc1)c1ccc(O)cc1",
    "labelValue": "inactive"
  },
  {
    "compound": "Clc1ccc([C@@]2(Cn3cncn3)C[C@H](Br)CO2)c(Cl)c1",
    "labelValue": "inactive"
  }
]

Ask: Hi team, can someone confirm the assay call for "CS/C(C)=N/OC(=O)N(C)SN(C)C(=O)O/N=C(\C)SC" ?
Reply: inactive

---

Readings of activity, negative = inhibition for the listed compounds
# systemUnderTest: Cytochrome P450 2C19 (Homo sapiens)
# test: qHTS Assay for Inhibitors and Substrates of Cytochrome P450 2C19 (AID 899); note: % is set by controls: 0 for no effect and ±100 for the full control effect; nearly all actives have a fitted effect of over 60% in size
# testParameters: recombinant CYP2C19, luciferin-H EGE luminescence; series mostly up to 57.1 µM
Inconclusive results are not listed. Calls of active or inactive are those of the source. Calls come from the whole dose curve; as a rule, active = well fitted inhibition curve with a large enough effect; inconclusive = small, poorly fitted or top-dose-only effect; inactive = no such curve, though single readings can be large or run the other way.

Ask: GET /values?readout=activity, negative = inhibition&system=Cytochrome P450 2C19 (Homo sapiens)&item= "COC(=O)NC/C=C\c1nc(CC/C=C\C(=O)O[C@H]2C[C@H]3CC(=O)O[C@@H](/C=C\CC(C)C)C[C@@H]4CC[C@H](C)[C@H](C[C@@H](OC)C[C@H](C2)O3)O4)co1"
Reply: 68.9% [at 11.4 µM] (inactive)

Ask: Kindly state the measured activity, negative = inhibition obtained for "C[C@@H]1OC=C2[C@@H](O)[C@H]3O[C@H]3C(=O)[C@@]23[C@H]1[C@H]1C2=C([C@@H](O)[C@H]4O[C@@H]4C2=O)[C@@H]3O[C@@H]1C" with Cytochrome P450 2C19 (Homo sapiens).
Reply: 53.9% [at 11.4 µM] (inactive)

Ask: Lab request: please report activity, negative = inhibition under test system Cytochrome P450 2C19 (Homo sapiens) for CCC1CN2CCC1CC2C(Oc1cc2ccccc2c2ccccc12)c1ccnc2ccc(O)cc12 (configuration not stated)
Reply: 16.1% [at 11.4 µM] (inactive)

Ask: Notebook: pull reported activity, negative = inhibition for Cytochrome P450 2C19 (Homo sapiens), entry "C=C(Br)CN(C)CC(=C)Br"
Reply: 46.7% [at 11.4 µM] (inactive)

---

# systemUnderTest: Peroxisome proliferator-activated receptor alpha (Homo sapiens)
# test: qHTS assay for small molecule agonists of the peroxisome proliferator-activated receptor alpha (PPARalpha) signaling pathway (AID 651778); note: potency is the fitted concentration of half-maximal effect
# testParameters: PathHunter PPARalpha complementation, chemiluminescence, 6 h
Calls of active or inactive are those of the source. The call rests on the fitted dose curve; in most records, active means well fitted activation curve with a large enough effect; inconclusive means small, poorly fitted or top-dose-only effect; inactive means flat fitted curve, though single readings scatter.
metric: Potency

[
  {
    "compound": "CCCCCCCCCCCCCCC(Br)C(=O)O (centres undefined)",
    "metric": "Potency",
    "valueObserved": "14.1 µM (active)"
  },
  {
    "compound": "N#Cc1cc(Br)c(O)c(Br)c1",
    "metric": "Potency",
    "valueObserved": "25.1 µM (active)"
  },
  {
    "compound": "CCC(C)(C)c1ccc(O)c(C(C)(C)CC)c1",
    "metric": "Potency",
    "valueObserved": "35.5 µM (active)"
  }
]

Here is another compound to look at.
Ask: Need Potency of "N#Cc1cc(I)c(O)c(I)c1" , thanks.
Reply: 15.8 µM (active)

---

# systemUnderTest: Peroxisome proliferator-activated receptor alpha (Homo sapiens) (UniProt Q07869)
# Sequence (Q07869 whole entry, looked up): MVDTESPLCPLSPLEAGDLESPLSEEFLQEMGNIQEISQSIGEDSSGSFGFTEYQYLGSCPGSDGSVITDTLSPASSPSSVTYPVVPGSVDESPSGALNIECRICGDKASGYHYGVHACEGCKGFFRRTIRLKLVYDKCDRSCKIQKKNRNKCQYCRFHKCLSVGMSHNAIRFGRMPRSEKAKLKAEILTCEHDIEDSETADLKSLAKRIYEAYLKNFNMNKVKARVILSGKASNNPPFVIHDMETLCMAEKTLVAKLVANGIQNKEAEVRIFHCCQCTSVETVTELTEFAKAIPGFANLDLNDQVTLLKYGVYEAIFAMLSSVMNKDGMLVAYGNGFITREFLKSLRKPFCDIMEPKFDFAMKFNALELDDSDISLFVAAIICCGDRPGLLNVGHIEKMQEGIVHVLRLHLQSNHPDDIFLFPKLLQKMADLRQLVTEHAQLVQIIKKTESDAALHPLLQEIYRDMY
# test: qHTS assay for small molecule agonists of the peroxisome proliferator-activated receptor alpha (PPARalpha) signaling pathway (AID 651778); for max response: % of control where 0% means no effect
# testParameters: PathHunter PPARalpha complementation, chemiluminescence, 6 h; active compounds read high
Quick reference: max response of the listed items.
Value expressed in %; do not type the unit.

[
  {
    "compound": "O=[N+]([O-])Nc1nccn1Cc1ccc(Cl)nc1",
    "valueObserved": -0.0433
  },
  {
    "compound": "CC1(C)CN=C(NN=C(/C=C/c2ccc(C(F)(F)F)cc2)/C=C/c2ccc(C(F)(F)F)cc2)NC1",
    "valueObserved": -2.05
  }
]

Ask: Could you share what max response was measured for "Cc1cc(C)nc(Nc2ccccc2)n1" , tested on Peroxisome proliferator-activated receptor alpha (Homo sapiens) (UniProt Q07869)?
Reply: 5.23

Ask: Return max response measured with Peroxisome proliferator-activated receptor alpha (Homo sapiens) (UniProt Q07869) given this compound: CCOP(=O)(OCC)OC(Cl)C(Cl)(Cl)Cl (configuration not stated)
Reply: -2.65

Ask: Field: max response (Peroxisome proliferator-activated receptor alpha (Homo sapiens) (UniProt Q07869)). Entry: "O=[N+]([O-])c1ccc2ccc3cccc4ccc1c2c34"
Reply: -0.269

Ask: Item: CC(Oc1cccc(Cl)c1)C(=O)O (configuration not stated) Test system: Peroxisome proliferator-activated receptor alpha (Homo sapiens) (UniProt Q07869) Read-out: max response Value: ?
Reply: -0.485

Ask: Lab note: need max response with Peroxisome proliferator-activated receptor alpha (Homo sapiens) (UniProt Q07869) for entry "COc1ccc(O)c(C(C)(C)C)c1" , please look it up.
Reply: 1.63

Source listed as PubChem BioAssay (NCATS).
